- experiment.summary: Extended single-dose toxicity study including safety pharmacology endpoints, i.v. bolus (GLP)
- Type: in vivo, beagle dogs
- condition.context: beagle, dog, plasma, iv, 400 ug/kg; Female; 400 μg/kg single i.v. bolus; mean n = 3
property.measured: clearance (mL/min/kg)
Numbers only, in mL/min/kg.

The compound identified as CC(C)C[C@@H]1NC(=O)[C@H](Cc2cccc(NC(=O)CCCS(N)(=O)=O)c2)NC(=O)[C@H](CC(=O)O)NC(=O)[C@H]2CCCN2C(=O)[C@H](CCC(=O)O)NC(=O)[C@@H](NC(=O)[C@H](CCC(N)=O)NC(=O)CN2CCN(C(=O)CN3CCN(CC(=O)O)CCN(CC(=O)O)CCN(CC(=O)O)CC3)CC2)CSCc2cccc(c2)CSC[C@@H](C(N)=O)NC(=O)[C@H](CO)NC(=O)[C@H](Cc2c[nH]c3ccccc23)NC(=O)[C@H]([C@@H](C)O)NC1=O [DPI-4452] registered its clearance at 8.63

###

- experiment.summary: Pharmacokinetic characterization in healthy mice
- Assay type: in vivo, CD-1 mice
- condition.context: male, CD-1, plasma, iv; mouse, i.v. 0.7 mg/kg; read-out: volume of distribution (Vd)
property.measured: Vd
Dear colleague, please send the value followed by its unit.

// CC(C)C[C@@H]1NC(=O)[C@H](Cc2cccc(NC(=O)CCCS(N)(=O)=O)c2)NC(=O)[C@H](CC(=O)O)NC(=O)[C@H]2CCCN2C(=O)[C@H](CCC(=O)O)NC(=O)[C@@H](NC(=O)[C@H](CCC(N)=O)NC(=O)CN2CCN(C(=O)CN3CCN(CC(=O)O)CCN(CC(=O)O)CCN(CC(=O)O)CC3)CC2)CSCc2cccc(c2)CSC[C@@H](C(N)=O)NC(=O)[C@H](CO)NC(=O)[C@H](Cc2c[nH]c3ccccc23)NC(=O)[C@H]([C@@H](C)O)NC1=O : Vd value = 0.408 L/kg

###

- experiment.summary: Biodistribution study (SPECT/CT) in HT-29 tumor-bearing mice
- Assay type: in vivo, NMRI nude mice
- condition.context: female, NMRI nude, mouse, in vivo, iv, total radioactivity, Kidney uptake at 24 h p.i.
- Protocol: The effect on tumor uptake of prior injection of gelofusine for kidney protection was investigated in mice bearing the SK-RC-52 tumor. Biodistribution was evaluated using in vivo SPECT/CT imaging. Prior to the in vivo study the compounds (ligands) were initially radiolabeled with In-111 and the stability of radiolabeled compounds was evaluated in buffer at three different timepoints. […]
property.measured: tissue uptake at 24 h (%ID/g)
One number for each entry, in %ID/g.

CC(C)C[C@@H]1NC(=O)[C@H](Cc2ccc(NC(=O)CCS(N)(=O)=O)cc2)NC(=O)[C@H](CC(=O)O)NC(=O)[C@H]2CCCN2C(=O)[C@H](CCC(=O)O)NC(=O)[C@@H](NC(=O)[C@H](CCC(N)=O)NC(=O)CN2CCN(CC(=O)O)CCN(CC(=O)O)CCN(CC(=O)O)CC2)CSCc2cccc(c2)CSC[C@@H](C(N)=O)NC(=O)[C@H](CO)NC(=O)[C@H](Cc2c[nH]c3ccccc23)NC(=O)[C@H]([C@@H](C)O)NC1=O has a reported tissue uptake at 24 h of 2.16

###

- tested.on: human carbonic anhydrase IX (hCAIX-Fc) (Homo sapiens, UniProt Q16790)
- Construct: purchased SinoBliological (Sino Biological) 10107-H02H
- experiment.summary: Surface plasmon resonance assay with hCAIX-Fc
- Format: binding
- condition.context: SPR, hCAIX-Fc captured, 25° C.; read-out: pKD category (activity) (converted)
Starred links: 1 amine or outer side, 2 acyl side, 3 side chain; linkers in the order of their positions; H or OH if unused. Positions of bridges follow the written chain, without caps; N, C: chain ends. Non-standard residues stand in square brackets, D forms with d. Residues, ends and D or L forms follow the SMILES beside them. *: point of attachment. DOTA = O=C(O)CN1CCN(CC(=O)O)CCN(CC(=O)*)CCN(CC(=O)O)CC1; mXylylene = c1cc(C[*:1])cc(C[*:2])c1; X12 = O=C(CC1CCN([*:1])CC1)[*:2]; Dap = NC[C@H](N)C(=O)O
Could you please report measured Kd for the items listed next?

Take each entry in turn and give its Kd.
1. CC(C)C[C@@H]1NC(=O)[C@H](Cc2cccc(NC(=O)c3cccc(NS(N)(=O)=O)n3)c2)NC(=O)[C@H](CC(=O)O)NC(=O)[C@H]2CCCN2C(=O)[C@H](CCC(=O)O)NC(=O)[C@@H](NC(=O)[C@H](CCC(N)=O)NC(=O)CN2CCN(C(=O)CN3CCN(CC(=O)O)CCN(CC(=O)O)CCN(CC(=O)O)CC3)CC2)CSCc2cccc(c2)CSC[C@@H](C(N)=O)NC(=O)[C@H](CO)NC(=O)[C@H](Cc2c[nH]c3ccccc23)NC(=O)[C@H]([C@@H](C)O)NC1=O [3BP-4514]
2. CC(C)C[C@@H]1NC(=O)[C@H](Cc2c[nH]c3ccccc23)NC(=O)[C@H](CC(=O)O)NC(=O)[C@H]2CCCN2C(=O)[C@H](CCC(=O)O)NC(=O)[C@@H]2CSCc3cccc(c3)CSC[C@@H](C(N)=O)NC(=O)[C@H](CNC(=O)C[C@H](NC(=O)CC3CCN(C(=O)CN4CCN(CC(=O)O)CCN(CC(=O)O)CCN(CC(=O)O)CC4)CC3)C(=O)N2)NC(=O)[C@H](Cc2c[nH]c3ccccc23)NC(=O)[C@H]([C@@H](C)O)NC1=O [3BP-4259] ({DOTA}-[X12]DCE[dP]DWLTW[Dap]C-NH2; lactam 2-11; linker 3-12 via mXylylene)

stdout:
["< 0.01 µM", "< 0.01 µM"]
